- Experimental target: MAOB (monoamine oxidase B) (Homo sapiens)
- Construct: recombinant human MAOB
- Sequence (P27338 2-520): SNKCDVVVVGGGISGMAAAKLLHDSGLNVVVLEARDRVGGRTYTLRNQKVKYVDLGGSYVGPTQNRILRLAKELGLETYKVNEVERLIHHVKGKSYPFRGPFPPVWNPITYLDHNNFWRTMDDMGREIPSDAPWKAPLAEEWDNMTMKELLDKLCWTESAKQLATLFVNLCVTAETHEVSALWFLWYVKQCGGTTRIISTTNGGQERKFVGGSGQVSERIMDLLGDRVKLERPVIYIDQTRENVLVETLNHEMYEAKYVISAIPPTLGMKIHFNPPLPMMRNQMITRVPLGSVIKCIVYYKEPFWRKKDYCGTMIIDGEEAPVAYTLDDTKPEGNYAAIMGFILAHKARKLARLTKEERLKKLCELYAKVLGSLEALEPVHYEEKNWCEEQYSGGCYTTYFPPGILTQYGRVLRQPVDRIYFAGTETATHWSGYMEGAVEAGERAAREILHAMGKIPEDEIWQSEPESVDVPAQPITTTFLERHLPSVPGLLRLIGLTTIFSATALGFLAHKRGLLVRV
- Protocol details: ITC
- Format: binding
- Condition summary: read-out: Kd
Property: Kd (µM)
Provide only the numeric value, understood in µM.

Request: Reported Kd for CNCC(O)c1ccc(O)cc1 (stereo not shown) [synephrine] : what is it?
Result: 183

###

- Experimental target: MAOB (monoamine oxidase B) (Homo sapiens)
- Construct: recombinant human MAOB
- Protocol details: ITC ([…] stoichiometry); also MAOB activity inhibition in vitro, IC50 […]
- Assay type: binding
Property: Kd (µM)
Provide only the numeric value, understood in µM.

Request: Reported Kd for O=C(O)[C@H](O)Cc1ccc(O)c(O)c1 : what is it?
Result: 16

FYI, the data here is from paper PMC4764943.
